- subject_of_test: T1, Cathepsin K (UniProt P43235 115-329)
- T1 sequence (looked up): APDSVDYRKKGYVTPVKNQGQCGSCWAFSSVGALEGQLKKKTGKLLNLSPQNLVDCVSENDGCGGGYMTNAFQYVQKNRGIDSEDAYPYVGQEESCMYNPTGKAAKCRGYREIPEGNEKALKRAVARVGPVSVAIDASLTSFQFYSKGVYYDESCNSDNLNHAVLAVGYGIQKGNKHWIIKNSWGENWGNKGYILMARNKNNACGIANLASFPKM
- measurement_notes: fluorescence-based enzyme inhibition assay
Positions of bridges follow the written chain, without caps; N, C: chain ends. No end group written: not given here. alpha,alpha'‑meta‑xylylene = alpha,alpha'-meta-xylylene linker (from a,a'-dibromo-meta-xylene) bridging two cysteines via bis-thioether
test_readout: pKi
Formally, pKi is defined as -log10 of the concentration c, with c in mol/L.

-- ask Entry WWEWWCSLMCS (linker 6-10 via alpha,alpha'‑meta‑xylylene, quadruple mutant; also called compound (IVa)) [WWEWWCSLMCS (SEQ ID NO:26)] : reported pKi = ?
-- reply 4.42

-- ask Given the binder WWEWVCSLMCS (linker 6-10 via alpha,alpha'‑meta‑xylylene, triple mutant) [WWEWVCSLMCS (SEQ ID NO:25)] , what is its reported pKi?
-- reply 4.71

-- ask Fill in: pKi of TWEEVCSLMCS (linker 6-10 via alpha,alpha'‑meta‑xylylene, single mutant) [TWEEVCSLMCS (SEQ ID NO:18)] is ___
-- reply 4.17

-- ask Given TWEWVCSLMCS (linker 6-10 via alpha,alpha'‑meta‑xylylene, double mutant) [TWEWVCSLMCS (SEQ ID NO:23)] , state its recorded pKi.
-- reply 4.18
